# SYSTEM TESTED: T1, glucose-dependent insulinotropic peptide (gastric inhibitory polypeptide) receptor (GIPR), primary cAMP assay (human, UniProt P48546 22-466)
# T1 sequence (looked up): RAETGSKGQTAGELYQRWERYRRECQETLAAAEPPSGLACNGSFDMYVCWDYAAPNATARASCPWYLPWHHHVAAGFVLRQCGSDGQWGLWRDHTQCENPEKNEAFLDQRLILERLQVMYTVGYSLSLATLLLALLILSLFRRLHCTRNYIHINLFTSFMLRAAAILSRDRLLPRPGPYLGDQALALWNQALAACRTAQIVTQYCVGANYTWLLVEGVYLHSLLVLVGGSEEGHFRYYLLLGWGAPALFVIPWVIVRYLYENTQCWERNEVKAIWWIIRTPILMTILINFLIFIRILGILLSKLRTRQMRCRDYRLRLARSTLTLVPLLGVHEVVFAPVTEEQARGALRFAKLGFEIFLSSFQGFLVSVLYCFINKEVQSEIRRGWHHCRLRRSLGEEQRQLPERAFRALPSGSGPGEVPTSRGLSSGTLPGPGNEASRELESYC
# TEST SUMMARY: cell-based or functional assay
Starred links: 1 amine or outer side, 2 acyl side, 3 side chain; linkers in the order of their positions; H or OH if unused. Non-standard residues stand in square brackets, D forms with d. Groups on a side chain read outwards from the residue. Primed or numbered codes have the meaning given here. No end group written: not given here. *: point of attachment. γGlu = O=C(O)[C@H](CCC(=O)[*:2])N[*:1]; Palmitoyl = CCCCCCCCCCCCCCCC(=O)*; αMeF = C[C@](N)(Cc1ccccc1)C(=O)O; αMeK = C[C@](N)(CCCCN)C(=O)O; Lauroyl = CCCCCCCCCCCC(=O)*; αMeS = C[C@](N)(CO)C(=O)O; PEG2′ = not defined here; Aib = CC(C)(N)C(=O)O
PROPERTY: Primary assay EC50 (cAMP), n2 (nM)

H[Aib]EGS[αMeF]TSDV[αMeS]SK([PEG2′-PEG2′-γGlu-Lauroyl])LEGEAA[αMeK]E[αMeF]IAK([PEG2′-PEG2′-γGlu-Lauroyl])VVEGG-NH2 [SEQ ID NO: 405] : 21.5
H[Aib]EGS[αMeF]TSDVSK([PEG2′-PEG2′-γGlu-Palmitoyl])YLEGEAA[αMeK]EFIAK([PEG2′-PEG2′-γGlu-Palmitoyl])VVEGG-NH2 [SEQ ID NO: 254] : 21.9
